target: Hsp90 in C. albicans (SC5314) lysate (Candida albicans, UniProt P46598); construct: endogenous in cells; host or cells: C. albicans SC5314 whole-cell lysate; assay: biochemical; assay type: binding; conditions: SC5314 lysate, 1.372 nM
Sequence (P46598 whole entry): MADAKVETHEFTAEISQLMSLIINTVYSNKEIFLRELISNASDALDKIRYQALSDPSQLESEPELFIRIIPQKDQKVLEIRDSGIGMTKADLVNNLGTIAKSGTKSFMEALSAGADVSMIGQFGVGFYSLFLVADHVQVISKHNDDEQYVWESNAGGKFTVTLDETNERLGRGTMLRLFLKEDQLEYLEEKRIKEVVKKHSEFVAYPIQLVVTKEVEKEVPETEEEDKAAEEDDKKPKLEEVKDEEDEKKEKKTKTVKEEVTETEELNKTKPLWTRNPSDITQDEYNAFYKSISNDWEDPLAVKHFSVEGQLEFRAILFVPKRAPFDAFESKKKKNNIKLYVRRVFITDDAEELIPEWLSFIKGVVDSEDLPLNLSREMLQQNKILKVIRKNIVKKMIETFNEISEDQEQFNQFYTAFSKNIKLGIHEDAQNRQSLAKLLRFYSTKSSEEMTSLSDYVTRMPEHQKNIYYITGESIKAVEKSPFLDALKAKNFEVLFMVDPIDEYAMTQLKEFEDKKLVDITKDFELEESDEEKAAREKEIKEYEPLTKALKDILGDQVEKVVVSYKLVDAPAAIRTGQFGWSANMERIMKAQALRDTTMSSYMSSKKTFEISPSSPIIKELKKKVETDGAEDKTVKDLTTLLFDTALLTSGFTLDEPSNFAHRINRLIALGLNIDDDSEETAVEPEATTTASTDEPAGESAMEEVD
Items are presented alongside their recorded FP signal (raw).
Metric name: FP signal (raw)

Compound | System tested | Quantitative readout
CC1CC2OC2C=CC=CC(=NOCc2ccccc2)Cc2c(Cl)c(O)cc(O)c2C(=O)O1 (mixture of isomers) [compound 217] | Hsp90 in C. albicans (SC5314) lysate (Candida albicans, UniProt P46598) | 194
CC1CC2OC2C=CC=CC(=NOCCN2CCCC2=O)Cc2c(Cl)c(O)cc(O)c2C(=O)O1 (stereo not shown) [KF58333, reference compound] | Hsp90 in C. albicans (SC5314) lysate (Candida albicans, UniProt P46598) | 193
CC1CC2OC2C=CC=CC(=NOCc2cccc(F)c2)Cc2c(Cl)c(O)cc(O)c2C(=O)O1 (mixture of isomers) [compound 227] | Hsp90 in C. albicans (SC5314) lysate (Candida albicans, UniProt P46598) | 195
COc1ccccc1CON=C1C=CC=CC2OC2CC(C)OC(=O)c2c(O)cc(O)c(Cl)c2C1 (mixture of isomers) [compound 226] | Hsp90 in C. albicans (SC5314) lysate (Candida albicans, UniProt P46598) | 197
